B1: SPACA3 (parent)
chain: FTSGFNAAALDYEADGSTNNGIFQ

variants of: B1; experiment: protein stability index of a GFP-peptide fusion (GPS, HEK-293T) (PSI 1-6); higher = more stable; settings: c terminus: a fixed tail appended;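 also: lentivirally expressed fusions sorted by FACS into six bins by GFP to DsRed ratio, PSI derived from sequencing read proportions per bin multiplied by bin number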
Kindly state protein stability index for each of the entries shown.

May I ask what protein stability index has been recorded for A7V ? 2.35

Need protein stability index of T2Y , thanks. 2.75

Name the recorded protein stability index for I22E . 2.4

Param item = T2F ; retrieve measured protein stability index. 3.13

# protein stability index lookup, item D15Y 2.47

Entry N6E : reported protein stability index = ? 2.88

Which protein stability index value is on record for N19R ? 1.66

Can you look up the measured protein stability index of A14L for me? 1.8

May I ask what protein stability index has been recorded for D11Q ? 2.01

Look at this variant and give its reported protein stability index. L10S 1.53

Tell me the measured protein stability index of A8P , please. 2.13

Any idea what its protein stability index is? The variant is F1M 3.99

Which protein stability index value is on record for L10D ? 2.47

Item S17E has what recorded protein stability index? 2.13

protein stability index for F1P ? 4.29

# input variant: L10Q ; wanted: its protein stability index 2.14

Quick one: protein stability index for G16N ? 2.33

Tell me the measured protein stability index of S17Y , please. 1.93

For G4M , what is its reported protein stability index? 1.74

Field request: protein stability index | item: Y12D 2.3

Using the record for I22R , report its protein stability index. 2.09

I'd like to know its protein stability index. The variant in question is S3M 2.52

What value of measured protein stability index is listed for A9R ? 1.99

Need protein stability index of F5R , thanks. 3.25

# protein stability index lookup, item T18M 1.95

Which measured protein stability index value corresponds to D15L ? 1.58

Which protein stability index value is on record for N20H ? 1.75

Data request, read-out protein stability index, for N6D 2.99

Dear colleague, I am looking for the recorded protein stability index of the following variant: Q24D 2.02

Data request, read-out protein stability index, for I22S 1.86

I am curious: what protein stability index value has been reported for A9C ? 1.83

Returns the measured protein stability index for the input variant. Input: G16S 1.83

Given the variant N19H , what is its reported protein stability index? 2.52

Request the reported protein stability index associated with D15M 1.63

For the variant E13F , what protein stability index is on record? 2.46

Quick one: protein stability index for Y12V ? 2.34

Using the record for G21K , report its protein stability index. 2.33

Which protein stability index is listed for F23K ? 2.48

Quick one: protein stability index for D11C ? 2.03

What does the record list as protein stability index for T2I ? 2.02

Recorded protein stability index of A9F , please. 2.92

What protein stability index value was documented for this variant, G16C ? 1.49

Fill in: protein stability index of A14C is ___ 2.37

Quick one: protein stability index of N20G ? 1.96

Param item = N6R ; retrieve measured protein stability index. 1.41

protein stability index for G16Y ? 1.66
